tested on: Vero E6; test: cell viability relative to DMSO; higher = less toxic; conditions: 72 h; 1000 nM
Counter-ions that a name gives are not always drawn.
property-label: cell viability (%)
// units = %; emit number, no label

Study these solved cases before continuing.
>  <compound>
CC(C)NC(=N)NC(=N)Nc1ccc(Cl)cc1

>  <target-system>
Vero E6

>  <property-label>
cell viability

>  <units-label>
%

>  <assay-value>
100

$$$$
>  <compound>
COC(=O)CCC(=O)CN [methyl-aminolevulinate]

>  <target-system>
Vero E6

>  <property-label>
cell viability

>  <units-label>
%

>  <assay-value>
88.8

$$$$
>  <compound>
CC[C@H]1OC(=O)C[C@@H](O)[C@H](C)[C@@H](O[C@@H]2O[C@H](C)[C@@H](O[C@H]3C[C@@](C)(O)[C@@H](O)[C@H](C)O3)[C@H](N(C)C)[C@H]2O)[C@@H](CC=O)C[C@@H](C)C(=O)/C=C/C(C)=C/[C@@H]1CO[C@@H]1O[C@H](C)[C@@H](O)[C@@H](OC)[C@H]1OC [TYLOSIN TARTRATE]

>  <target-system>
Vero E6

>  <property-label>
cell viability

>  <units-label>
%

>  <assay-value>
95.2

$$$$

Q: Which cell viability reading was recorded for the compound CCCN1CCCC[C@H]1C(=O)Nc1c(C)cccc1C ?
Ans: 98.7

Q: Which cell viability reading was recorded for the compound C[C@@H](Oc1ccc2[nH]nc(/C=C/c3cnn(CCO)c3)c2c1)c1c(Cl)cncc1Cl ?
Ans: 71.9

Q: Which cell viability reading was recorded for the compound O=C(/C=C/c1ccc(O)c(O)c1)O[C@H](Cc1ccc(O)c(O)c1)C(=O)O ?
Ans: 96.4

Q: Which cell viability reading was recorded for the compound COC(=O)[C@@]12OC[C@]34[C@H]([C@@H](O)[C@@H]1O)[C@@]1(C)CC(=O)C(O)=C(C)[C@@H]1C[C@H]3OC(=O)[C@H](OC(=O)/C=C(\C)C(C)C)[C@@H]24 [bruceantin] ?
Ans: 11.4

Q: Which cell viability reading was recorded for the compound CO/N=C1\CN(c2nc3c(cc2F)c(=O)c(C(=O)O)cn3C2CC2)CC1CN (stereo not given) ?
Ans: 102

Q: Which cell viability reading was recorded for the compound Cc1nc2cnc3ccc(C#Cc4cccnc4)cc3c2n1-c1ccc(C(C)(C)C#N)cc1 ?
Ans: 42.6

----------
Parameter relative viability EC50: see the listing below.
system: Vero E6; assay: relative viability EC50 (midpoint between 100% and the lowest measured viability); higher = less toxic; settings: 72 h

Study these solved cases before continuing.
>  <compound-string>
CN(C)CC[C@H](CSc1ccccc1)Nc1ccc(S(=O)(=O)NC(=O)c2ccc(N3CCN(Cc4ccccc4-c4ccc(Cl)cc4)CC3)cc2)cc1[N+](=O)[O-]

>  <relative viability EC50>
> 10 µM

$$$$
>  <compound-string>
CC(C)c1ccc(NC(=O)c2cccs2)c(-c2nc3ccccc3[nH]c2=O)c1

>  <relative viability EC50>
> 10 µM

$$$$
>  <compound-string>
Nc1ncnc2c1c(-c1cnc3[nH]ccc3c1)nn2C1CCCC1

>  <relative viability EC50>
1.43 µM

$$$$

Now consider a different molecule.
Q: What value of relative viability EC50 on Vero E6 does O=C(CSc1nc2c(c(=O)n1-c1ccccc1)SCC2)Nc1ccc(-c2ccccc2)cn1 have?
Ans: > 10 µM
